tested on: A549; assay: Cytotoxicity against human A549 cells expressing wild type p53 after 48 hrs by SRB assay; type: functional, cell-based; conditions: A549, 48 h
Reported endpoint: pIC50
API: returns pIC50 as number; meaning -log10 of concentration in mol/L.

Solved entries (count: 3):
1) CC[C@@]1(O)C(=O)OCc2c1cc1n(c2=O)Cc2cc3c(CN(C)C)c(O)ccc3nc2-1 [TOPOTECAN]	5.72
2) CC[C@@]1(O)C(=O)OCc2c1cc1n(c2=O)Cc2cc3ccccc3nc2-1 [CAMPTOTHECIN]	7.40
3) CCn1cc(-c2nc3ccccc3[nH]2)c(=O)c2cc(F)c(N3CCNCC3)cc21	5.33

### Prompt Please report pIC50 for the following molecule: CCn1cc(-c2nc3ccc([N+](=O)[O-])cc3[nH]2)c(=O)c2cc(F)c(N3CCNC(C)C3)c(F)c21 (stereo not given)
### Response 5.62

These entries and their values trace back to ChEMBL document CHEMBL1153527.
